All figures here come from ChEMBL document CHEMBL1138126.

Measurement record for Receptor tyrosine-protein kinase erbB-2 (Homo sapiens); quantity recorded: pIC50.
pIC50 is a log-scale quantity: -log10 of the concentration expressed in molar.

// query pIC50 value for entry O=C(C#CCN1CCOCC1)Nc1ccc2ncnc(Nc3ccc(F)c(Cl)c3)c2c1 6.52

Follow-up entry: CC#CC(=O)Nc1cc2c(Nc3ccc(F)c(Cl)c3)ncnc2cn1 8.96

Follow-up entry: CCN(CC)CCC#CC(=O)Nc1ccc2ncnc(Nc3ccc(F)c(Cl)c3)c2c1 8.59

Follow-up entry: C#CC(=O)Nc1cc2c(Nc3cccc(Br)c3)ncnc2cn1 8.62

Follow-up entry: C#CC(=O)Nc1ccc2ncnc(Nc3cccc(Br)c3)c2c1 8.72

Follow-up entry: CCN(CC)CC#CC(=O)Nc1ccc2ncnc(Nc3ccc(F)c(Cl)c3)c2c1 7.34
